# Target Or System: Dihydrofolate reductase (Rattus norvegicus, UniProt Q920D2)
# Sequence (Q920D2 whole entry): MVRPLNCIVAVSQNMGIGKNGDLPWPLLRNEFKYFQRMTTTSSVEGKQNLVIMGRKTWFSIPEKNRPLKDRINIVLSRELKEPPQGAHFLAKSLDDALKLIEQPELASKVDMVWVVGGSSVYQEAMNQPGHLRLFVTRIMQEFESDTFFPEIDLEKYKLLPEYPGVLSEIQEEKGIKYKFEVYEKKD
# Assay Details: Inhibitory activity against Dihydrofolate reductase enzyme purified from rat liver.
# Experimental Conditions: read-out: I50
Property: pIC50
The meaning of pIC50 here: minus log10 of the concentration in molar units.

## Task Param item = COc1cc(Cc2cnc(N)nc2N)cc(OC)c1O [4-HYDROXYTRIMETHOPRIM] ; retrieve measured pIC50.
## Result 4.04

---

# Target Or System: Bifunctional dihydrofolate reductase-thymidylate synthase (Plasmodium berghei str. ANKA)
# Sequence (Q27713 whole entry): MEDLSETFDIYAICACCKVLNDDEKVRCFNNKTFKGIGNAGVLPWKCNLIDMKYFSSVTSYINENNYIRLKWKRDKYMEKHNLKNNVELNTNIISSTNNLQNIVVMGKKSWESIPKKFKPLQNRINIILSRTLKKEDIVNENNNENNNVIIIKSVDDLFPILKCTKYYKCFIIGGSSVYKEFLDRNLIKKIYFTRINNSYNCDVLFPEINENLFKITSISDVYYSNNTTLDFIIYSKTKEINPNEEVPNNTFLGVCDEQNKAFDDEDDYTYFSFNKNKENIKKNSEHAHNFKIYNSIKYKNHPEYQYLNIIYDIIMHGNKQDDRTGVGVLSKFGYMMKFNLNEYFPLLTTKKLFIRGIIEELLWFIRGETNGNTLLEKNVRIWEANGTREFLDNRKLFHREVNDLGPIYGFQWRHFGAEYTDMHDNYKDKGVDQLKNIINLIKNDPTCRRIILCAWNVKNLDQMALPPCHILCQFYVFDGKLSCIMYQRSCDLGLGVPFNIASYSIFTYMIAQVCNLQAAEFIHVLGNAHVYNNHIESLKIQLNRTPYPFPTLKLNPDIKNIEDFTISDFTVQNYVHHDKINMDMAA
# Assay Details: Inhibitory activity against Dihydrofolate reductase enzyme purified from Plasmodium berghei.
# Experimental Conditions: read-out: I50
Property: pIC50
The meaning of pIC50 here: minus log10 of the concentration in molar units.

## Task Request: pIC50, test system Bifunctional dihydrofolate reductase-thymidylate synthase (Plasmodium berghei str. ANKA), entry COc1cc(Cc2cnc(N)nc2N)cc(OC)c1O [4-HYDROXYTRIMETHOPRIM]
## Result 6.52

---

# Test system: Klebsiella pneumoniae
# Assay Details: Antibacterial activity against Klebsiella pneumoniae CN 3632.
# Assay type: functional
Property: MIC

## Task Param item = COc1cc(Cc2cnc(N)nc2N)cc(OC)c1OC [TRIMETHOPRIM] ; retrieve measured MIC.
## Result 0.3 µg/mL

## Task Param item = `COc1cc(Cc2c[n+](C)c(N)nc2N)cc(OC)c1OC.[I-]` ; retrieve measured MIC.
## Result > 100 µg/mL

## Task Param item = `COc1cc(Cc2c(C)nc(N)nc2N)cc(OC)c1OC` ; retrieve measured MIC.
## Result > 100 µg/mL

## Task Param item = `COc1cc(Cc2c(N)nc(N)nc2O)cc(OC)c1O` ; retrieve measured MIC.
## Result > 100 µg/mL
